# credit: ChEMBL document CHEMBL1145412

Assay: Partition coefficient, log P in TRIS buffer at pH 7.4
Type: physicochemical
Provide the recorded logD for the entries that follow.
Quick one: just the number, no unit, thanks!

Fill in the blank: the reported logD of COCCOCCOCCOc1cccc(C2=N[C@@](C)(C(=O)[O-])CS2)c1O.[Na+] is ____.
-1.22

Also COCCOCCOCCOc1ccc(O)c(C2=N[C@@](C)(C(=O)[O-])CS2)c1.[Na+] ?
-1.27

###

System: Kidney
Experiment: Distribution in kidney in non-iron overloaded Sprague-Dawley rat at 300 umol/kg, sc after 4 hrs
Assay type: ADME, organism-based
Settings: in vivo
Provide the reported Drug uptake of each item.
Respond with a number, then the unit of measure.

If you can, please state the reported Drug uptake value of C[C@]1(C(=O)[O-])CSC(c2ccc(O)cc2O)=N1.[Na+] [DEFERITRIN SODIUM] .
27 nmol/g

Query COCCOCCOCCOc1ccc(O)c(C2=N[C@@](C)(C(=O)[O-])CS2)c1.[Na+] next
116 nmol/g

Same lookup for COCCOCCOCCOc1cccc(C2=N[C@@](C)(C(=O)[O-])CS2)c1O.[Na+] , please.
90 nmol/g

Also COCCOCCOCCOc1ccc(C2=N[C@@](C)(C(=O)O)CS2)c(O)c1 ?
34 nmol/g

###

System: Sapajus apella
Assay: Iron-clearing efficiency in iron-loaded Cebus apella assessed as excretion in stool at 75 umol/kg, po relative to control
Format: functional
observation-type: Activity (%)
Your answer is read as %, so omit the unit and give the number.

Report Activity for C[C@]1(C(=O)[O-])CSC(c2cc(O)ccc2O)=N1.[Na+] please.
88

Record: COCCOCCOCCOc1cccc(C2=N[C@@](C)(C(=O)[O-])CS2)c1O.[Na+]
72

// repeat for COc1cccc(C2=N[C@@](C)(C(=O)[O-])CS2)c1O.[Na+] and report
91

For COCCOCCOCCOc1ccc(O)c(C2=N[C@@](C)(C(=O)[O-])CS2)c1.[Na+] then?
56

Next up: COc1ccc(C2=N[C@@](C)(C(=O)[O-])CS2)c(O)c1.[Na+]
91

Please answer likewise for COc1ccc(O)c(C2=N[C@@](C)(C(=O)[O-])CS2)c1.[Na+]
94

Item: COCCOCCOCCOc1ccc(C2=N[C@@](C)(C(=O)O)CS2)c(O)c1
96

Could you do the same for C[C@]1(C(=O)[O-])CSC(c2cccc(O)c2O)=N1.[Na+] , please?
83

Please give the result for C[C@]1(C(=O)[O-])CSC(c2ccc(O)cc2O)=N1.[Na+] [DEFERITRIN SODIUM] too.
88

###

Hi there, I'd appreciate the recorded Activity for every entry that follows.
System: Sapajus apella
Experiment: Iron-clearing efficiency in iron-loaded Cebus apella assessed as excretion in urine at 75 umol/kg, po relative to control
Format: functional
Please respond with the number in % and leave the unit unwritten.

# input molecule: COCCOCCOCCOc1ccc(O)c(C2=N[C@@](C)(C(=O)[O-])CS2)c1.[Na+] ; wanted: its Activity
44

Another molecule to look at: COc1cccc(C2=N[C@@](C)(C(=O)[O-])CS2)c1O.[Na+]
9

Also C[C@]1(C(=O)[O-])CSC(c2ccc(O)cc2O)=N1.[Na+] [DEFERITRIN SODIUM] ?
12

Repeat with COCCOCCOCCOc1cccc(C2=N[C@@](C)(C(=O)[O-])CS2)c1O.[Na+]
28

Request: C[C@]1(C(=O)[O-])CSC(c2cc(O)ccc2O)=N1.[Na+]
12

Try this molecule next: COc1ccc(O)c(C2=N[C@@](C)(C(=O)[O-])CS2)c1.[Na+]
6

Another molecule: C[C@]1(C(=O)[O-])CSC(c2cccc(O)c2O)=N1.[Na+]
17

Further, for COCCOCCOCCOc1ccc(C2=N[C@@](C)(C(=O)O)CS2)c(O)c1 ?
4

Another molecule to check: COc1ccc(C2=N[C@@](C)(C(=O)[O-])CS2)c(O)c1.[Na+]
9

###

Test system: Kidney
Assay: Distribution in kidney in non-iron overloaded Sprague-Dawley rat at 300 umol/kg, sc after 1 hr
Assay type: ADME, organism-based
Conditions: in vivo
Give measured Drug uptake for each item. Keep answers brief.
Give the value in nmol/g but do not write nmol/g after it.

What value of measured Drug uptake is listed for C[C@]1(C(=O)[O-])CSC(c2ccc(O)cc2O)=N1.[Na+] [DEFERITRIN SODIUM] ?
179

Also COCCOCCOCCOc1cccc(C2=N[C@@](C)(C(=O)[O-])CS2)c1O.[Na+] ?
259

Next compound: COCCOCCOCCOc1ccc(O)c(C2=N[C@@](C)(C(=O)[O-])CS2)c1.[Na+]
435

Also check COCCOCCOCCOc1ccc(C2=N[C@@](C)(C(=O)O)CS2)c(O)c1
252
